tgt: C-C chemokine receptor type 10 (Homo sapiens)
test-name: Antagonist activity against human CCR10 expressed in human KJMGER8 cells assessed as inhibition of human recombinant CTACK-induced increase in intracellular calcium level at 100 nmol/L pre-incubated for 30 mins before human recombinant CTACK stimulation for 5 mins by FLIPR assay
Format: functional, cell-based
measured-parameter: inhibition

// worked examples, inhibition included
- smi: "CCNS(=O)(=O)c1cnn2c(Nc3ccc(Cl)cc3C)c(C(=O)N3CCC(c4ccc(F)cc4)CC3)cnc12"
  inhibition: "> 100%"
- smi: "CCC(=O)NS(=O)(=O)c1cnn2c(Nc3cc(Cl)ccc3Cl)c(C(=O)N3CCC4(CC3)OCc3ccccc34)cnc12"
  inhibition: "> 100%"

Assign inhibition to the following record: `O=C(c1cnc2c(S(=O)(=O)Nc3cccnn3)cnn2c1Nc1cc(Cl)ccc1Cl)N1CCC(c2ccc(F)cc2)CC1`
> 100%
